The reported measurements were obtained from patent US20110021776A1.

# methodDescription: Plasma pharmacokinetics, single dose in rats
# Format: in vivo, Sprague-Dawley rats
# conditionSet: Sprague-Dawley, rat, po; p.o. 10 mg/kg, plasma, normal rats
reportedEndpoint: Cmax
For clarity, give the value followed by its unit.

What the record says about Cc1nc2c(c3c1[nH]c1ccccc13)C(=O)CC(C)(C)C2 [Example 1] : Cmax is 1.86 µg/mL

----------
# methodDescription: Plasma pharmacokinetics, single dose in rats
# Type: in vivo, Sprague-Dawley rats
# conditionSet: Sprague-Dawley, rat, po; p.o. 10 mg/kg, plasma, normal rats
reportedEndpoint: Tmax (min)
Could you give me the number in min? Just the number is fine.

What the record says about Cc1nc2c(c3c1[nH]c1ccccc13)C(=O)CC(C)(C)C2 [Example 1] : Tmax is 15
